remaining activity at 1 µM overview
molecular target: IRAK4 (Homo sapiens); construct: lines 1-140) and Reaction Biology; assay: Dundee kinase panel; type: biochemical; details: read-out: residual activity
Sequence (Q9NWZ3 whole entry): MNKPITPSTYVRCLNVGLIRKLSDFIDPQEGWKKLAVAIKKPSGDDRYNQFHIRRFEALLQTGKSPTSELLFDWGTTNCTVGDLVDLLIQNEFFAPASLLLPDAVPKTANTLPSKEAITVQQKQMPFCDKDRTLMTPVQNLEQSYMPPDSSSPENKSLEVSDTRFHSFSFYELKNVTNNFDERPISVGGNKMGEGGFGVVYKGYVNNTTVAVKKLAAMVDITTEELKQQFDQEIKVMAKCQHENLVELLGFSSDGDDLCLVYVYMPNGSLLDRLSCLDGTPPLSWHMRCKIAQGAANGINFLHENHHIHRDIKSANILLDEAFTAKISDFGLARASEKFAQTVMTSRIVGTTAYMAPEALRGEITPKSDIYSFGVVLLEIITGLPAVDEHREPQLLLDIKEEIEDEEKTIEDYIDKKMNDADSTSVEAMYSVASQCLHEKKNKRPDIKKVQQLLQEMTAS
Provide only the numeric value, understood in %.

Example entries and their recorded answers appear below.
# Smiles notation, Endpoint value
data = [
    ("COCCOc1ccc(-c2cn(-c3ccccc3)c3nc[nH]c(=O)c23)cc1", 97),
    ("O=C1Cc2c([nH]c3ccc(Br)cc23)-c2ccccc2N1", 65),
    ("Oc1ncnc2c1c(-c1ccccc1)cn2-c1ccccc1", 103),
]

remaining activity at 1 µM for `O=C1Nc2ccc(I)cc2/C1=C/c1cc(Br)c(O)c(Br)c1` is 78

====

biological target: p38d MAPK (Homo sapiens, UniProt O15264); construct: lines 1-140) and Reaction Biology; assay: Dundee kinase panel; type: biochemical; conditions: read-out: residual activity
Sequence (O15264 whole entry): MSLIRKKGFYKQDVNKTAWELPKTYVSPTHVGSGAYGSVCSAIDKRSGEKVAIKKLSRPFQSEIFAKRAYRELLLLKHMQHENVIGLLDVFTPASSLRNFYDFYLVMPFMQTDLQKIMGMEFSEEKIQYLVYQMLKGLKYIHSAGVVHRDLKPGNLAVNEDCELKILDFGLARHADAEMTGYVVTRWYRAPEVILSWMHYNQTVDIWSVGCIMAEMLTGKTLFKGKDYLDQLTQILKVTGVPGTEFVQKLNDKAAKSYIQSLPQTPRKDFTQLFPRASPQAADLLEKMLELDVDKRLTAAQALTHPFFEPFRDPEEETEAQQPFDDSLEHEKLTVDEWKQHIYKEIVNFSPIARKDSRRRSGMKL
Assay readout: remaining activity at 1 µM (%)
Provide only the numeric value, understood in %.

Example entries and their recorded answers appear below.
# Smiles notation, remaining activity at 1 µM (%)
rows = [
    ("O=C1Nc2ccc(I)cc2/C1=C/c1cc(Br)c(O)c(Br)c1", 82),
    ("COCCOc1ccc(-c2cn(-c3ccccc3)c3nc[nH]c(=O)c23)cc1", 107),
    ("O=C1Cc2c([nH]c3ccc(Br)cc23)-c2ccccc2N1", 91),
]

remaining activity at 1 µM for `Oc1ncnc2c1c(-c1ccccc1)cn2-c1ccccc1` is 114

====

Biological target: MARK2 (Homo sapiens, UniProt Q7KZI7)
Construct: lines 1-140) and Reaction Biology
Sequence (Q7KZI7 whole entry): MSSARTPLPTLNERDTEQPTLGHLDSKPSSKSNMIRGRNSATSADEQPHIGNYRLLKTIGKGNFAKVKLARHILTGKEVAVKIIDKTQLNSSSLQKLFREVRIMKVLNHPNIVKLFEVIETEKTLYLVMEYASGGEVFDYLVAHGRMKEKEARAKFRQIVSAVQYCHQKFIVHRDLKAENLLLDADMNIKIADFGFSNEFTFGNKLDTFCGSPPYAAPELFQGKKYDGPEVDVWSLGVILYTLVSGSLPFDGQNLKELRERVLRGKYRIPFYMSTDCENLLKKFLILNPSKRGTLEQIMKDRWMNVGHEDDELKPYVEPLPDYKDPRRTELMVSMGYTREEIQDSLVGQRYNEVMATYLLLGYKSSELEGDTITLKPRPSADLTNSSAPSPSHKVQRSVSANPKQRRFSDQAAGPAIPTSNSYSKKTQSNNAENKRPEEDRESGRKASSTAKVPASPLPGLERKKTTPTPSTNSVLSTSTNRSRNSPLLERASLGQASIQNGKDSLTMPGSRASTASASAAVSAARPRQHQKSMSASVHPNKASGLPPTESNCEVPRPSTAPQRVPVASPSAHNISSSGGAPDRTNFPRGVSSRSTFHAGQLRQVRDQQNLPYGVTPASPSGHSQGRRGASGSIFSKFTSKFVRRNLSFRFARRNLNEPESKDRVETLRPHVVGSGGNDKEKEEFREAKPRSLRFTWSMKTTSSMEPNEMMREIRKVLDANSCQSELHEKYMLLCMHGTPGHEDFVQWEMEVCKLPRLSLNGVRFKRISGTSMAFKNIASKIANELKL
Assay: Dundee kinase panel
Type: biochemical
Conditions: read-out: residual activity
Experimental: Compounds were screened at 1 μM. For key hits, pIC50 values were then determined by HTRF as above. […] Stability in mouse and human liver microsomes was determined by Cyprotex.
remaining activity at 1 µM overview
Provide only the numeric value, understood in %.

# Smiles notation, Units, remaining activity at 1 µM
data = [
    ("O=C1Cc2c([nH]c3ccc(Br)cc23)-c2ccccc2N1", "%", 35),
]

Fill in: MARK2 (Homo sapiens, UniProt Q7KZI7) remaining activity at 1 µM for `O=C1Nc2ccc(I)cc2/C1=C/c1cc(Br)c(O)c(Br)c1` = 49

Fill in: MARK2 (Homo sapiens, UniProt Q7KZI7) remaining activity at 1 µM for `Oc1ncnc2c1c(-c1ccccc1)cn2-c1ccccc1` = 98

Fill in: MARK2 (Homo sapiens, UniProt Q7KZI7) remaining activity at 1 µM for `COCCOc1ccc(-c2cn(-c3ccccc3)c3nc[nH]c(=O)c23)cc1` = 98

====

remaining activity at 1 µM overview
target: PAK5 (Homo sapiens); construct: lines 1-140) and Reaction Biology; experiment: Dundee kinase panel; type: biochemical; details: read-out: residual activity
Sequence (Q9P286 whole entry): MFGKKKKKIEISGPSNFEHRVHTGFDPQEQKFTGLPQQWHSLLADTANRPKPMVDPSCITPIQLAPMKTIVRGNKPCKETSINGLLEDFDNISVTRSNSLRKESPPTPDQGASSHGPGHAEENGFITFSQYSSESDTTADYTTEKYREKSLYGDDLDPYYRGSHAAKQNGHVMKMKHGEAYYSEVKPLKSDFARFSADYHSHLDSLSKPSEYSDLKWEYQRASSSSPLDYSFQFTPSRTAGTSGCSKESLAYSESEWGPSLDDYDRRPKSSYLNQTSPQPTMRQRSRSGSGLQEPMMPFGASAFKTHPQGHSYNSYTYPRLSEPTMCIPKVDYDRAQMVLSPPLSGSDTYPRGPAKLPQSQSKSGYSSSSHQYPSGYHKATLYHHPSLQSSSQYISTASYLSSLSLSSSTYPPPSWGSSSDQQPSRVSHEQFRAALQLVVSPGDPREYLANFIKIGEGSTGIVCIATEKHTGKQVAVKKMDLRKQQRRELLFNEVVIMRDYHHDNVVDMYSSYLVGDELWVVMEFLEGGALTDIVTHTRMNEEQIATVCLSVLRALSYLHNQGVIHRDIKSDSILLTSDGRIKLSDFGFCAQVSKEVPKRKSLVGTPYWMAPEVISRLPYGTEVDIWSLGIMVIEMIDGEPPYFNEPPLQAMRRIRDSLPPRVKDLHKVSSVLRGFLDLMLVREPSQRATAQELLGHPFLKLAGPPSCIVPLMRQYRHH
Provide only the numeric value, understood in %.

Example entries and their recorded answers appear below.
# Smiles notation, Assayed target, Assay readout, Units, Endpoint value
data = [
    ("O=C1Nc2ccc(I)cc2/C1=C/c1cc(Br)c(O)c(Br)c1", "PAK5 (Homo sapiens)", "remaining activity at 1 µM", "%", 77),
    ("Oc1ncnc2c1c(-c1ccccc1)cn2-c1ccccc1", "PAK5 (Homo sapiens)", "remaining activity at 1 µM", "%", 105),
    ("O=C1Cc2c([nH]c3ccc(Br)cc23)-c2ccccc2N1", "PAK5 (Homo sapiens)", "remaining activity at 1 µM", "%", 12),
]

remaining activity at 1 µM for `COCCOc1ccc(-c2cn(-c3ccccc3)c3nc[nH]c(=O)c23)cc1` is 105
